pIC50: −log10 of the molar value.
Record set of pIC50 for target or system EGFR WT (Homo sapiens (Human), UniProt P00533).

Recorded pIC50, per entry:
COMPOUND: C=CC(=O)N1CCCN(c2ncc3ncnc(Nc4ccc(Oc5ccc6c(c5)nnn6C)c(C)c4)c3n2)C[C@H]1C
ENDPOINT RESULT: ≤ 6.00
//
COMPOUND: C=CC(=O)N1CCN(c2ccc3ncnc(Nc4cc(C)c(Oc5ccc6c(c5)nnn6C)cc4OC)c3n2)C[C@H]1C
ENDPOINT RESULT: 6.30 to 7.00
//
COMPOUND: C=CC(=O)N[C@H]1CN(c2ncc3ncnc(Nc4ccc(Oc5ccc6c(c5)nnn6C)c(C)c4F)c3n2)CC[C@@H]1C
ENDPOINT RESULT: 6.30 to 7.00
//
COMPOUND: C=CC(=O)N1CCN(c2ncc3ncnc(Nc4ccc(Oc5ccc6c(c5)ncn6C(F)F)c(C)c4)c3n2)CC1
ENDPOINT RESULT: 7.00 to 7.30
//
COMPOUND: C=CC(=O)N1CCC(Oc2ncc3ncnc(Nc4ccc(Oc5ccn6ncnc6c5)c(C)c4)c3n2)C1 (centres unmarked)
ENDPOINT RESULT: 6.30 to 7.00
//
COMPOUND: Cc1cc(Nc2ncnc3ccc(N4CCN(C(=O)/C=C/C(F)F)[C@@H](C)C4)nc23)ccc1Oc1ccc2c(c1)nnn2C
ENDPOINT RESULT: 6.30 to 7.00
//
COMPOUND: C=CC(=O)N1C2CC1CN(c1ncc3ncnc(Nc4cc(C)c(Oc5ccc6c(c5)nnn6C)cc4OC)c3n1)C2
ENDPOINT RESULT: 6.30 to 7.00
//
COMPOUND: C=C(COC)C(=O)N1C2CC1CN(c1ncc3ncnc(Nc4ccc(Oc5ccc6c(c5)nnn6C)c(C)c4)c3n1)C2
ENDPOINT RESULT: ≤ 6.00

Give pIC50 for each listed item.
1. C=CC(=O)N1CCC(Oc2ncc3ncnc(Nc4ccc(Oc5ccc6c(c5)ncn6C)c(C)c4)c3n2)C(F)(F)C1 (centres unmarked)
2. C=C(F)C(=O)N1CCN(c2ncc3ncnc(Nc4ccc(Oc5ccc6c(c5)nnn6C)c(C)c4)c3n2)C[C@@H]1COC

[reply]
1. > 7.30
2. ≤ 6.00

Give pIC50 for each listed item.
1. C=CC(=O)N1CCN(c2ccc3ncnc(Nc4ccc(Oc5ccc6c(c5)nnn6C(F)F)c(C)c4F)c3n2)C[C@H]1C
2. C=CC(=O)N1CCN(c2ncc3ncnc(Nc4ccc(Oc5cc6nnn(C)c6cn5)c(C)c4)c3n2)CC1
3. C=CC(=O)N(C)C1CN(c2ncc3ncnc(Nc4ccc(Oc5ccc6c(c5)nnn6C)c(C)c4)c3n2)C1

[reply]
1. 6.30 to 7.00
2. 6.30 to 7.00
3. 6.30 to 7.00

[ask] What value of pIC50 has been reported for the following compound? "C=CC(=O)N1CCN(c2ccc3ncnc(Nc4ccc(Oc5ccc6c(c5)nnn6C)c(C)c4)c3n2)C[C@H]1C(C)C"
[reply] 6.30 to 7.00

====

MEASURED TARGET: ErbB2 V777L (Homo sapiens (Human), UniProt P04626, V777L)
Sequence (P04626 23-1255 V777L): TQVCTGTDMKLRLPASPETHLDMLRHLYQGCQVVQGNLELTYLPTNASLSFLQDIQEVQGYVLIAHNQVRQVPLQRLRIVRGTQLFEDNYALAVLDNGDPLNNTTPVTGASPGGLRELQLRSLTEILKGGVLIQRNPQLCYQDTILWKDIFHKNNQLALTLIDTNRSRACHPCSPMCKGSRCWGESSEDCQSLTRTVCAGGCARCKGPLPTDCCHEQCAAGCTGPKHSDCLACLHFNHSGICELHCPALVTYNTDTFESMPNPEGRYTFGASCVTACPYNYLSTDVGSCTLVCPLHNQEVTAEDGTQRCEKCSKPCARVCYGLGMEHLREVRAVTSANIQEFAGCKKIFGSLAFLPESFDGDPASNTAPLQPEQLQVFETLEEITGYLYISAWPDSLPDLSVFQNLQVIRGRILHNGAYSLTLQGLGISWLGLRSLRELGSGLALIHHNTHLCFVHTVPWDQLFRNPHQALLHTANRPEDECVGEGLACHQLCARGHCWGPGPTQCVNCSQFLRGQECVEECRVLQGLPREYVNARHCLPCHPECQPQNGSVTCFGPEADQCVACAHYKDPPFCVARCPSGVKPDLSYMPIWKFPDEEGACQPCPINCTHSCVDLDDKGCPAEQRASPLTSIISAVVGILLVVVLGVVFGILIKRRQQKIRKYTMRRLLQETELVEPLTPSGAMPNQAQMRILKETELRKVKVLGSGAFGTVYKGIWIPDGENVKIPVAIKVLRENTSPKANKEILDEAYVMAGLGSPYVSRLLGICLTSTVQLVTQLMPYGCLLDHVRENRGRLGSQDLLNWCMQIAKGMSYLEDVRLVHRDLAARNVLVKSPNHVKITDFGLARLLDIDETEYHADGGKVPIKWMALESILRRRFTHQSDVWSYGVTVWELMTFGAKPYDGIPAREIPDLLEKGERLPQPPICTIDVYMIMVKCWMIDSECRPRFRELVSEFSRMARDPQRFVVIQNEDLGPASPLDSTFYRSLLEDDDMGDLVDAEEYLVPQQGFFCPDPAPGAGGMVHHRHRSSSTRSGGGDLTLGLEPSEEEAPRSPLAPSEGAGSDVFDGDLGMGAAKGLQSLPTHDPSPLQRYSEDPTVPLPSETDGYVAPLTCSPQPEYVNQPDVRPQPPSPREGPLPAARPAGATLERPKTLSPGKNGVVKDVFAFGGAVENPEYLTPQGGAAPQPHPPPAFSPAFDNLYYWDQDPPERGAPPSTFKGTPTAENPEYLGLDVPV
ASSAY REMARKS: ErbB enzyme assay (CisBio HTRF-KinEASE-TK), ErbB2 V777L
Type: biochemical
Task for the reader: assign each of the following molecules its reported IC50.

MOLECULE: C=CC(=O)N1CCN(c2ccc3ncnc(Nc4ccc(Oc5ccc6c(c5)nnn6C)c(C)c4F)c3n2)C[C@H]1CC
IC50: 100 to 500 nM

Give IC50 for each listed item.
1. C=CC(=O)N1CC2CN(c3ncc4ncnc(Nc5ccc(Oc6ccc7c(c6)nnn7C)c(C)c5)c4n3)CC2C1 (stereo not shown)
2. C=CC(=O)N1CCN(c2ncc3ncnc(Nc4c(F)cc(Oc5ccc6c(c5)nnn6C)cc4F)c3n2)CC1

[reply]
1. 100 to 500 nM
2. 500 to 1000 nM

[ask] What value of IC50 has been reported for the following molecule? "C=CC(=O)N1CCC[C@@H](N(C)c2ncc3ncnc(Nc4ccc(Oc5ccc6c(c5)nnn6C)c(C)c4)c3n2)C1"
[reply] 100 to 500 nM

====

MEASURED TARGET: ErbB2 V777L (Homo sapiens (Human), UniProt P04626, V777L)
ASSAY REMARKS: ErbB enzyme assay (CisBio HTRF-KinEASE-TK), ErbB2 V777L
Assay type: biochemical
Structures can show the parent of a compound that is named as a salt.
REPORTED ENDPOINT: IC50

COMPOUND: C=CC(=O)N1CCN(c2ncc3ncnc(Nc4ccc(Oc5cc6nnn(C)c6c(F)c5C)c(C)c4F)c3n2)C[C@H]1C
MEASURED TARGET: ErbB2 V777L (Homo sapiens (Human), UniProt P04626, V777L)
IC50: 500 to 1000 nM
--
COMPOUND: C=CC(=O)N1CCN(c2ncc3ncnc(Nc4ccc(Oc5ccc6c(c5)nnn6C)c(C)c4)c3n2)C[C@@H]1C
MEASURED TARGET: ErbB2 V777L (Homo sapiens (Human), UniProt P04626, V777L)
IC50: 50 to 100 nM
--
COMPOUND: C=CC(=O)N1CCN(c2ccc3ncnc(Nc4cc(C)c(Oc5ccc6c(c5)nnn6C)cc4OC(F)F)c3n2)CC1
MEASURED TARGET: ErbB2 V777L (Homo sapiens (Human), UniProt P04626, V777L)
IC50: 50 to 100 nM

Give IC50 for each listed item.
1. C=C(F)C(=O)N1CCN(c2ncc3ncnc(Nc4ccc(Oc5ccc6c(c5)nnn6C)c(C)c4)c3n2)C[C@@H]1C(F)(F)F
2. C=CC(=O)N1CCN(c2ccc3ncnc(Nc4ccc(Oc5ccc6c(c5)nnn6C)c(C)c4F)c3n2)C[C@H]1C
3. C=CC(=O)N1CCN(c2ncc3ncnc(Nc4ccc(Oc5ccc6c(c5)nnn6C)c(C)c4F)c3c2F)CC1
4. C=CC(=O)N1C2CCCC1CC(c1ccc3ncnc(Nc4ccc(Oc5ccc6c(c5)nnn6C)c(C)c4F)c3n1)C2 (stereo not shown) [Compound 402, trifluoroacetate]

[reply]
1: 500 to 1000 nM; 2: 50 to 100 nM; 3: 100 to 500 nM; 4: 100 to 500 nM

====

Task for the reader: assign each of the following compounds its reported IC50.
MEASURED TARGET: ErbB2 V777L (Homo sapiens (Human), UniProt P04626, V777L)
ASSAY REMARKS: ErbB enzyme assay (CisBio HTRF-KinEASE-TK), ErbB2 V777L
Format: biochemical

Give IC50 for each listed item.
1. C=CC(=O)N1CCN(c2ccc3ncnc(Nc4ccc(Oc5cc6nnn(C)c6c(F)c5C)c(C)c4)c3n2)C[C@H]1C
2. C=CC(=O)N1CCN(c2ncc3ncnc(Nc4ccc(Oc5ccc6c(c5)nnn6C)c(C)c4F)c3n2)C[C@H]1C
3. C=CC(=O)N1CCN(c2ccc3ncnc(Nc4ccc(Oc5cc(F)c6c(c5)nnn6C)c(C)c4F)c3n2)CC1
4. C=CC(=O)N1CCN(c2ccc3ncnc(Nc4ccc(Oc5ccc6c(c5)ncn6C(F)F)c(C)c4F)c3n2)C[C@H]1C
5. C=CC(=O)N[C@@H]1C[C@H](F)CN(c2ccc3ncnc(Nc4ccc(Oc5ccc6c(c5)nnn6C)c(C)c4F)c3n2)C1

[reply]
100 to 500 nM
100 to 500 nM
50 to 100 nM
50 to 100 nM
50 to 100 nM

Give IC50 for each listed item.
1. C=CC(=O)N1CCCN(c2ccc3ncnc(Nc4ccc(Oc5ccn6ncnc6c5)c(C)c4)c3n2)C[C@@H]1C
2. C=CC(=O)N1C2CC1CN(c1ccc3ncnc(Nc4ccc(Oc5ccc6c(c5)nnn6C)c(C)c4)c3n1)C2
3. COC/C=C/C(=O)N1CCN(c2ncc3ncnc(Nc4ccc(Oc5ccc6c(c5)nnn6C)c(C)c4)c3n2)CC1

[reply]
100 to 500 nM
50 to 100 nM
100 to 500 nM

Give IC50 for each listed item.
1. C=CC(=O)N1C2CC1CN(c1ncc3ncnc(Nc4cc(C)c(Oc5ccc6c(c5)nnn6C)cc4OC)c3n1)C2
2. C=CC(=O)N1CCN(c2ncc3ncnc(Nc4ccc(Oc5ccc6c(c5)nnn6C)c(C)c4)c3n2)CC[C@@H]1C
3. C=CC(=O)N1CCN(c2ncc3ncnc(Nc4ccc(Oc5cc(F)c6c(c5)nnn6C)c(C)c4F)c3n2)C[C@H]1C

[reply]
["100 to 500 nM", "100 to 500 nM", "100 to 500 nM"]

====

MEASURED TARGET: UniProt:P00533
ASSAY REMARKS: ErbB cellular phosphorylation assay (phospho-EGFR ELISA), HEK-293 cells expressing EGFR wild type, EGF stimulated
MEASUREMENT CONTEXT: 1 h treatment
Procedure: HEK-293 cells were engineered to constitutively express ErbB2 mutant L755S or EGFR wild type (constructs obtained from GenScript, Piscataway, NJ). […] Cell lysates were analyzed by enzyme-linked immunosorbent assay (ELISA). […] Absorbance was measured at 450 nm using a BioTek Cytation 5 plate reader (Agilent, Santa Clara, CA) and IC50 values were calculated using a 4-parameter fit.
Counter-ions that a name gives are not always drawn.
Task for the reader: assign each of the following compounds its reported IC50.

COMPOUND: C=CC(=O)N1CCN(c2ccc3ncnc(Nc4ccc(Oc5ccc6c(c5)nnn6C)c(C)c4)c3n2)[C@@H](C)C1
REPORTED ENDPOINT: IC50
ENDPOINT RESULT: ≥ 5 µM
--
COMPOUND: C=CC(=O)N1CCN(c2ncc3ncnc(Nc4ccc(Oc5cc(F)c6c(c5)nnn6C)c(C)c4F)c3n2)CC1
REPORTED ENDPOINT: IC50
ENDPOINT RESULT: ≥ 5 µM
--
COMPOUND: C=CC(=O)N1CCN(c2ncc3ncnc(Nc4ccc(Oc5ccc6c(c5)nnn6C)c(C)c4)c3n2)C[C@@H]1CO
REPORTED ENDPOINT: IC50
ENDPOINT RESULT: ≥ 5 µM
--
COMPOUND: C=CC(=O)N1CCN(c2ncc3ncnc(Nc4ccc(Oc5ccc6c(c5)ncn6C(F)F)c(C)c4F)c3n2)CC1
REPORTED ENDPOINT: IC50
ENDPOINT RESULT: 1 to 5 µM
--
COMPOUND: C=CC(=O)N1CCN(c2ccc3ncnc(Nc4ccc(Oc5ccc6c(c5)nnn6C)c(C)c4F)c3n2)CC1
REPORTED ENDPOINT: IC50
ENDPOINT RESULT: ≥ 5 µM
--
COMPOUND: C=CC(=O)N1CC=C(c2ccc3ncnc(Nc4ccc(Oc5ccc6c(c5)nnn6C)c(C)c4)c3n2)CC1 [Compound 109, trifluoroacetate]
REPORTED ENDPOINT: IC50
ENDPOINT RESULT: ≥ 5 µM
--
COMPOUND: C=CC(=O)N1CCN(c2ncc3ncnc(Nc4ccc(Oc5ccc6c(c5)nnn6C)c(C)c4)c3n2)CC1(C)C
REPORTED ENDPOINT: IC50
ENDPOINT RESULT: ≥ 5 µM
--
COMPOUND: C=CC(=O)N1C2CCC1CN(c1ncc3ncnc(Nc4cc(C)c(Oc5cc(F)c6c(c5)ncn6C)cc4OC)c3n1)C2
REPORTED ENDPOINT: IC50
ENDPOINT RESULT: ≥ 5 µM

Give IC50 for each listed item.
1. C=CC(=O)N1CCN(c2ncc3ncnc(Nc4cc(C)c(Oc5ccc6c(c5)ncn6C(F)F)cc4OC)c3n2)C[C@H]1C
2. C=CC(=O)N1CCN(c2ncc3ncnc(Nc4cc(C)c(Oc5ccc6c(c5)ncn6C)cc4OC)c3n2)CC1 [Compound 11, trifluoroacetate]
3. C=CC(=O)N1CCN(c2ncc3ncnc(Nc4ccc(Oc5cc(F)c6c(c5)nnn6C)c(C)c4)c3n2)CC1
4. CC#CC(=O)N1CCN(c2ncc3ncnc(Nc4ccc(Oc5ccc6c(c5)nnn6C)c(C)c4)c3n2)CC1
5. C=CC(=O)N1C2CCC1CN(c1ccc3ncnc(Nc4ccc(Oc5ccc6c(c5)nnn6C)c(C)c4)c3n1)C2

[reply]
1. ≥ 5 µM
2. ≥ 5 µM
3. 1 to 5 µM
4. ≥ 5 µM
5. 1 to 5 µM
